- Measured target: C-terminal-binding protein 1 (Homo sapiens) (UniProt Q13363)
- Assay summary: qHTS for Inhibitors of the Phosphatase Activity of Eya2: Carboxyl-terminal binding protein (CtBP) Counterscreen for Cherry-picked Compounds; note: nearly all actives have a fitted effect of over 65% in size
- Applied conditions: purified protein-protein binding, AlphaScreen, 3 h; series mostly up to 46.1 µM
Out of some 1,300 compounds screened, about 420 (32%) were called active. Not shown: some 32% with an inconclusive outcome. Calls come from the whole dose curve; as a rule, active = well fitted inhibition curve with a large enough effect; inconclusive = small, poorly fitted or top-dose-only effect; inactive = no such curve, though single readings can be large or run the other way. The list shows a part of the results.
Labels: 1.0 (active), 0.0 (inactive)

> print(dat)
                                   compound                           measured.target  answer.label
1  Cc1ccc(OCCSc2nc3ccccc3n2CCC(=O)O)c(C(C)C)c1  C-terminal-binding protein 1 (Homo sapiens) (UniProt Q13363)           0.0
2  CCn1c2ccccc2c2cc(NC(=O)COC(=O)c3ccc(NC(=O)CC#N)cc3)ccc21  C-terminal-binding protein 1 (Homo sapiens) (UniProt Q13363)           0.0
3  N#CC1=C(N)n2c(s/c(=C\c3cccs3)c2=O)=C(C#N)C1c1cccs1 (stereo not given)  C-terminal-binding protein 1 (Homo sapiens) (UniProt Q13363)           1.0
4  O=C(O)c1ccc2c(c1)C(=O)N(c1ccc(/C=C/C(=O)c3ccccc3)cc1)C2=O  C-terminal-binding protein 1 (Homo sapiens) (UniProt Q13363)           0.0
5  CCOc1ccc2nc(N3CCCC(C(=O)N4CCN(CC)CC4)C3)sc2c1 (stereo not given)  C-terminal-binding protein 1 (Homo sapiens) (UniProt Q13363)           0.0

---

- Measured target: C-terminal-binding protein 1 (Homo sapiens) (UniProt Q13363)
- Assay summary: qHTS for Inhibitors of the Phosphatase Activity of Eya2: Carboxyl-terminal binding protein (CtBP) Counterscreen for Cherry-picked Compounds; note: nearly all actives have a fitted effect of over 65% in size
- Applied conditions: purified protein-protein binding, AlphaScreen, 3 h; series mostly up to 46.1 µM
Out of some 1,300 compounds screened, about 420 (32%) were called active. Another 32% or so got no clear call; they are omitted. Calls follow the shape of the dose curve; as a rule, active = well fitted inhibition curve with a large enough effect; inconclusive = small, poorly fitted or top-dose-only effect; inactive = no such curve, though single readings can be large or run the other way. The list shows a part of the results.
Labels: active, inactive

> print(dat)
                                    molecule  answer.label
 1  COc1ccc(CCn2c(=N)c(C(=O)NCC3CCCO3)cc3c(=O)n4ccccc4nc32)cc1 (stereo not drawn)        active
 2  CC(=O)N1CCCc2cc(S(=O)(=O)N3CCCC(C(=O)N4CCN(c5cc(C)ccc5C)CC4)C3)ccc21 (stereo not drawn)      inactive
 3  COc1ccccc1N1CCN(C(=O)c2ccc(-c3nc4ccccc4s3)o2)CC1      inactive
 4  O=C(COc1ccccc1/C=C1/NC(=O)NC1=O)Nc1ccccc1      inactive
 5  Cc1cc(C(=O)COC(=O)c2ccc(O)cc2)c(C)n1CCc1ccc(F)cc1      inactive
 6   O=S(c1cc(Cl)cc(Cl)c1O)c1cc(Cl)cc(Cl)c1O        active
 7     O=C(Nc1nncs1)c1cc(-c2ccco2)nc2ccccc12        active
 8  CCC(=O)NC(c1ccc(OC)c(OC)c1)c1cc(Cl)c2cccnc2c1O (stereo not drawn)        active
 9  O=C(O)CCN1C(=O)/C(=C/c2ccc(-c3nc4ccccc4s3)o2)SC1=S        active
10  Cn1nc(C(=O)Nc2nc3ccccc3[nH]2)c2ccccc2c1=O        active
11        COc1ccc(N2CCN(Cc3ccc(Br)s3)CC2)cc1        active
12        Nc1ccc2c(c1)C(=O)c1cc(N)c(Cl)cc1-2      inactive
13  CCN(CC)C(=O)c1ccc(-c2nnc(Nc3ccc(C(=O)NC)cc3)c3ccccc23)cc1        active
14  Cc1ccc(S(=O)(=O)N2CCOCC2)cc1NC(=O)CSc1nnc2cc(C)c3ccccc3n12        active
15  CC(C)n1ncc2c(C(=O)N3CCN(Cc4ccc(Br)s4)CC3)cc(C3CC3)nc21      inactive
16  O=C(Nc1cc([N+](=O)[O-])ccc1O)c1cccc(C(=O)Nc2cc([N+](=O)[O-])ccc2O)c1        active
17  CCSc1nc2ccccc2n1C(=O)c1ccc(S(=O)(=O)N2CCCCC2)cc1      inactive
18  CCCC(=O)NC(c1ccc(OC)c(OC)c1)c1cc(Cl)c2cccnc2c1O (stereo not drawn)        active

Just for reference, PubChem BioAssay AID720541 is where these values come from.
